Molecular target: T1, human B7-H7 expressed on the cell surface (human, UniProt Q9UM44 23-414)
T1 sequence: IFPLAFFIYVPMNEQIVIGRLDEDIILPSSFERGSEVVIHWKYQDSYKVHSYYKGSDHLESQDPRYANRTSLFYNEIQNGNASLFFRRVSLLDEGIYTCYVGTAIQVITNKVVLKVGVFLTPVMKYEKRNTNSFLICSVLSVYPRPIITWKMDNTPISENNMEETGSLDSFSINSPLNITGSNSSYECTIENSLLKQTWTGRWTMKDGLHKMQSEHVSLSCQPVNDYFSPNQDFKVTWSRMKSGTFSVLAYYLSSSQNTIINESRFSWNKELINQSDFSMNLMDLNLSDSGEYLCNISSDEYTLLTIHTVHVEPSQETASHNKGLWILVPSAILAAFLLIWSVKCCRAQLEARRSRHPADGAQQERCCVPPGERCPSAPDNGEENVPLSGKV
Assay: cell-based or functional assay
Exercise: state measured Induction of NK-92 cytotoxicity EC50 for each of the binders provided.
Use nM as the unit, but write only the number.

Fill in Induction of NK-92 cytotoxicity EC50 for record anti-B7-H7 antibody 1D3 (antibody, V domains shown, Mouse hybridoma antibody) VH: EVQLQQSGPELEKPGASVKISCKASGYSFTGYNMNWVKESNGRSLEWIGNIDPYSGGSTYNQKFKGKATMTVDKSSSTAYMQLKSLTSEDSAVYYCARSVYDAPWLAHWGQGTLVTVSA VL: DIQMTQSPASLSASVGETVTITCRASENIYIYLAWYQQKQGKSPQLLVYNAKTLAEGVPSRFSGSGSGTQFSLKINRLQPEDFGNYYCQHHYGTPPTFGGGTKLEIK
1.2

Fill in Induction of NK-92 cytotoxicity EC50 for record anti-B7-H7 antibody 2D7 (antibody, V domains shown, Parental mouse hybridoma antibody raised against human B7-H7-Fc) VH: EVQLQQSGPELVKPGASVKISCKTSGYTFTEYTMHWVKQSHGKSLEWIGGINPNNYGAPYNQKFKGKATLTVDKSSNTAYMELRSLTSEDSAIYYCASGGYYFDYWGQGTTLTVSS VL: DIVMTQSHKFMSTSFGDRVSITCKASQDVGTAVAWYQQKLGQSPKLLISWAFTRHTGVPDRFTGSGSGTDYTLTISSLQAEDLALYYCQQHYDTPFTFGSGTKLEIK
1

Fill in Induction of NK-92 cytotoxicity EC50 for record anti-B7-H7 antibody 5F7 (antibody, V domains shown, Mouse hybridoma antibody) VH: QEQLQQPGTELVKPGASVKISCKASGYTFSSYSMHWVKLTPGQGLEWMGTIYPGNENTSYNQKFKGKATLTADKSSSTAYMQLSSLTSEDSAVYYCARGGYYFDYWGQGTTLTVSS VL: DIVMTQSHKFLSTSVGDRVSITCKASQDVSTAVAWYQQKPGQSPKLLIYWASTRHTGVSDRFTGSGSGTDFTLTISSVQAEDLALYYCQQHFDIPYWFGGGTKLEIK
0.6

Fill in Induction of NK-92 cytotoxicity EC50 for record anti-B7-H7 antibody 28F5 (antibody, V domains shown, Mouse hybridoma antibody) VH: QVQLKESGPGLVAPSQSLSITCTVSGFSLTGYGVNWVRQPPGKGLEWLGVIWGDGSTDYNSVLKSRLSISKDNSKSQVFLKMNSLQTDDTARYYCAREATEYLYWYFDVWGAGTTVTVSS VL: DIVLTQSPASLAVSLGQRATISCRASESVEYYGSSLMQWYQQKPGQPPKLLIFAASNVESGVPPRFSGSGSGTDFNLNIHPVDEDDIAMYFCQQGRRVPWTFGGGTKLEIK
0.5
